Target Of Assay: GST-HIAP2 (cIAP-1) BIR 3 (Homo sapiens)
Sequence (Q13490 251-363): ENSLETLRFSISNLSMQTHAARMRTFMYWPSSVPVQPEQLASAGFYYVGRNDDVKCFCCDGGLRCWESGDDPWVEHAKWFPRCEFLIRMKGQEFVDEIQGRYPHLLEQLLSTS
Measurement Notes: Fluorescence polarization-based competition assay, cIAP-1 Bir3
pIC50: −log10 of the molar value.
Property: pIC50

INSERT INTO measurements (item_smiles, target_of_assay, value_reported) VALUES
  ('CN[C@@H](C)C(=O)N[C@H](C(=O)N1CCC[C@H]1CN(CCc1ccccc1)C(=O)C(F)(F)F)C(C)(C)C', 'GST-HIAP2 (cIAP-1) BIR 3 (Homo sapiens)', '> 6.00'),
  ('CN[C@@H](C)C(=O)N[C@H](C(=O)N1CCC[C@H]1CN(CCc1ccccc1)C(=O)Cc1ccccc1)C(C)(C)C', 'GST-HIAP2 (cIAP-1) BIR 3 (Homo sapiens)', '> 6.00'),
  ('CN[C@@H](C)C(=O)N[C@H](C(=O)N1CCC[C@H]1CN(CCc1ccccc1)C(=O)CCC(=O)O)C(C)(C)C', 'GST-HIAP2 (cIAP-1) BIR 3 (Homo sapiens)', '> 6.00'),
  ('CC(=O)N(Cc1ccccn1)C[C@@H]1CCCN1C(=O)[C@@H](NC(=O)[C@H](C)N)C(C)C', 'GST-HIAP2 (cIAP-1) BIR 3 (Homo sapiens)', '> 5.00'),
  ('CN[C@@H](C)C(=O)N[C@H](C(=O)N1CCC[C@H]1CN(CCc1ccccc1)C(=O)[C@H](N)Cc1cccnc1)C(C)(C)C', 'GST-HIAP2 (cIAP-1) BIR 3 (Homo sapiens)', '> 6.00'),
  ('CC(C)[C@H](NC(=O)[C@H](C)N)C(=O)N1CCC[C@H]1CN(C(=O)C(F)(F)F)[C@H]1CCCc2ccccc21', 'GST-HIAP2 (cIAP-1) BIR 3 (Homo sapiens)', '> 5.00'),
  ('CC[C@H](N)C(=O)N[C@H](C(=O)N1CCC[C@H]1CNCCc1ccccc1)C(C)C', 'GST-HIAP2 (cIAP-1) BIR 3 (Homo sapiens)', '> 5.00'),
  ('CN[C@@H](C)C(=O)N[C@H](C(=O)N1CCC[C@H]1CN(CCc1ccccc1)C(=O)OCc1ccccc1)C(C)(C)C', 'GST-HIAP2 (cIAP-1) BIR 3 (Homo sapiens)', '> 6.00');

Determine its reported pIC50: `CN[C@@H](C)C(=O)N[C@H](C(=O)N1CCC[C@H]1CN(CCc1ccccc1)C(=O)[C@H](N)Cc1ccncc1)C(C)(C)C`
> 6.00

Please give the documented pIC50 of `CC(=O)N(CCCc1ccccc1)C[C@@H]1CCCN1C(=O)[C@@H](NC(=O)[C@H](C)N)C(C)C`
> 5.00

Supply reported pIC50 belonging to this molecule: `CC(C)[C@H](NC(=O)[C@H](C)N)C(=O)N1CCC[C@H]1CN(CCc1ccccc1)C(=O)OCc1ccccc1`
> 6.00

Give a short answer stating reported pIC50 for `CC(C)[C@H](NC(=O)[C@H](C)N)C(=O)N1CCC[C@H]1CS(=O)(=O)CCc1ccccc1` .
> 5.00

For the molecule `CC[C@H](N)C(=O)N[C@H](C(=O)N1CCC[C@H]1CN([C@H](C)c1ccccc1)S(C)(=O)=O)C(C)C` , report pIC50.
< 5.00

Input `CN[C@@H](C)C(=O)N[C@H](C(=O)N1CCC[C@H]1CN(CCc1ccccc1)S(=O)(=O)Cc1ccccc1)C(C)(C)C` , output reported pIC50.
> 6.00

Numbers sourced from patent US7772177B2.
